- Tested on: Trypanosoma cruzi
- run-description: Antiparasitic activity against epimastigotes of Trypanosoma cruzi assessed as inhibition of parasite proliferation
- Type: functional, organism-based
- setup-conditions: Trypanosoma cruzi; read-out: IC50
property: IC50 (µg/mL)

smiles-text: O=C(Cn1ccnc1[N+](=O)[O-])NCc1ccccc1
property: IC50
recorded-measurement: 2.5
--
smiles-text: CC(C)=C1CC[C@@H](C)[C@]2(C[C@@H](c3ccoc3)OC2=O)[C@H]1CCC1=CC(=O)C=CC1=O
property: IC50
recorded-measurement: 2
--
smiles-text: C=C(C)[C@]12CC[C@@H](C)[C@]3(C[C@@H](c4ccoc4)OC3=O)[C@H]1CCC(=O)O2
property: IC50
recorded-measurement: 5
--
smiles-text: CC(C)=C1CC[C@@H](C)[C@]2(C[C@@H](c3ccoc3)OC2=O)[C@H]1CCNC(=O)OC(C)(C)C
property: IC50
recorded-measurement: 2
--
smiles-text: CC(C)=C1CC[C@@H](C)[C@]2(C[C@@H](c3ccoc3)OC2=O)[C@H]1CCNC(=O)NCC[C@H]1C(=C(C)C)CC[C@@H](C)[C@]12C[C@@H](c1ccoc1)OC2=O
property: IC50
recorded-measurement: 5
--
smiles-text: CC(C)=C1CC[C@@H](C)[C@]2(C[C@@H](c3ccoc3)OC2=O)[C@H]1CCNC(=O)N=[N+]=[N-]
property: IC50
recorded-measurement: 4
--
smiles-text: CC(C)=C1CC[C@@H](C)[C@]2(C[C@@H](c3ccoc3)OC2=O)[C@H]1CCC(=O)O
property: IC50
recorded-measurement: 2
--
smiles-text: CC(C)=C1CC[C@@H](C)[C@]2(C[C@@H](c3ccoc3)OC2=O)[C@H]1CCc1cc(O)ccc1O
property: IC50
recorded-measurement: 7
